FYI, the data here is from patent US20240140949A1.

tested on: H1299 lung cancer cells; assay: Cell viability (MTT assay) in H1299 cells; type: cell-based, human; details: 0.5-10 μM, 3 days, MTT (FIG. 9-12)
assay_metric: lung cancer cell death (cell viability)

CN1c2ccc(F)cc2C(=O)N2CCc3c([nH]c4ccccc34)C21 (stereo not drawn) ... excellent effects
CN1c2ccc(I)cc2C(=O)N2CCc3c([nH]c4ccccc34)C21 (stereo not drawn) ... excellent effects
CN1c2ccc(Cl)cc2C(=O)N2CCc3c([nH]c4ccccc34)C21 (stereo not drawn) ... excellent effects

###

assay_metric: melting point

C#CCN1c2ccccc2C(=O)N2CCc3c([nH]c4ccc(O)cc34)C21 (stereo not shown) ... 230 to 232 °C

Task: Data request, read-out melting point, for C=C(C)CN1c2ccccc2C(=O)N2CCc3c([nH]c4c([N+](=O)[O-])cc([N+](=O)[O-])cc34)C21 (stereo not shown)
Result: 175 to 177 °C

Task: Data request, read-out melting point, for C=C(C)CN1c2ccccc2C(=O)N2CCc3c([nH]c4ccc([N+](=O)[O-])cc34)C21 (stereo not shown)
Result: 261 to 262 °C

Task: Data request, read-out melting point, for C=C(C)CN1c2ccccc2C(=O)N2CCc3c([nH]c4ccc(O)cc34)C21 (stereo not shown)
Result: 211 to 213 °C

###

system: lung cancer cell; experiment: Cancer cell survival inhibitory activity (MTT assay) of EV501 to EV509; assay type: cell-based; settings: 0.5 μM (lowest concentration), MTT assay (FIG. 18)
Reported inhibition at 0.5 µM values are given for each entry in this list.

C=CCN1c2ccccc2C(=O)N2CCc3c([nH]c4ccc([N+](=O)[O-])cc34)C21 (stereo not shown) ... > 65%
C=C(C)CN1c2ccccc2C(=O)N2CCc3c([nH]c4ccc(O)cc34)C21 (stereo not shown) ... > 65%
C=C(C)CN1c2ccccc2C(=O)N2CCc3c([nH]c4ccc([N+](=O)[O-])cc34)C21 (stereo not shown) ... > 50%

Task: Any idea what inhibition at 0.5 µM came out for C=CCN1c2ccccc2C(=O)N2CCc3c([nH]c4c([N+](=O)[O-])cc([N+](=O)[O-])cc34)C21 (stereo not shown) on lung cancer cell?
Result: > 50%

###

tested on: lung cancer cell; assay: Cancer cell survival inhibitory activity (MTT assay) of EV501 to EV509; format: cell-based; conditions: 0.5 μM (lowest concentration), MTT assay (FIG. 18)
assay_metric: inhibition at 0.5 µM

Worked cases, inhibition at 0.5 µM given:
C=CCN1c2ccccc2C(=O)N2CCc3c([nH]c4ccc(O)cc34)C21 (stereo not drawn) [EV507] ... > 65%
C#CCN1c2ccccc2C(=O)N2CCc3c([nH]c4c([N+](=O)[O-])cc([N+](=O)[O-])cc34)C21 (stereo not drawn) [EV506] ... > 50%

Shifting focus to the compound that follows.
Task: Data request, read-out inhibition at 0.5 µM, for C#CCN1c2ccccc2C(=O)N2CCc3c([nH]c4ccc(O)cc34)C21 (stereo not drawn) [EV508]
Result: > 65%

###

assay_metric: melting point

Worked cases, melting point given:
C=CCN1c2ccccc2C(=O)N2CCc3c([nH]c4ccc([N+](=O)[O-])cc34)C21 (stereo not drawn) ... 186 to 188 °C
C=CCN1c2ccccc2C(=O)N2CCc3c([nH]c4c([N+](=O)[O-])cc([N+](=O)[O-])cc34)C21 (stereo not drawn) ... 229 to 231 °C

Shifting focus to the molecule that follows.
Task: Data request, read-out melting point, for C#CCN1c2ccccc2C(=O)N2CCc3c([nH]c4c([N+](=O)[O-])cc([N+](=O)[O-])cc34)C21 (stereo not drawn)
Result: 232 to 234 °C
